Target: T1, 4H342-bA
T1 chain: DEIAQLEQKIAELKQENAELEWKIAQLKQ
Test: two-hybrid library CCNG1;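 also: natural log of median RNA to DNA barcode read ratio; higher means stronger binding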
Please mark true (1) if the recorded interaction score is equal to or greater than -0.3, and false (0) if it falls below.

DKIAQLKQENAELEQEIAELEWKNAQLKQ [4H2696-bA] | false (0)
DKIAQLKQKIAELKQEIAELEWENAQLEQ [4H2883-bA] | true (1)
DKIAQLKQKIAELKQKNAELKWKNAQLKQ [4H2944-bA] | true (1)
DKIAQLKQEIAELEQKNAELKWENAQLEQ [4H2619-bA] | true (1)

Hi, just wondering whether DKIAQLKQENAELEQEIAELEWENAQLEQ [4H2691-bA] shows interaction score of -0.3 or higher. false (0)

Hi, just wondering whether DEIAQLEQKIAELKQENAELEWKIAQLKQ [4H342-bA] shows interaction score of -0.3 or higher. true (1)

Hi, just wondering whether DEIAQLEQEIAELEQENAELEWENAQLEQ [4H19-bA] shows interaction score of -0.3 or higher. false (0)

Hi, just wondering whether DKIAQLKQKIAELKQKNAELKWEIAQLEQ [4H2937-bA] shows interaction score of -0.3 or higher. true (1)

Hi, just wondering whether DENAQLEQKIAELKQEIAELEWENAQLEQ [4H1347-bA] shows interaction score of -0.3 or higher. false (0)

Hi, just wondering whether DEIAQLEQENAELEQENAELEWEIAQLEQ [4H145-bA] shows interaction score of -0.3 or higher. false (0)

Hi, just wondering whether DKIAQLKQKNAELKQKNAELKWKIAQLKQ [4H3070-bA] shows interaction score of -0.3 or higher. true (1)

Value source: paper PMC10397247
